Value source: patent US20260042764A1

System: GP2d cells (KRAS G12D)
protocol_description: Cell-based pERK HTRF assay in GP2d cell (Biological Example 2)
reported_conditions: GP2d, GP2d (KRAS G12D) cells, pERK HTRF; class symbols
measurement_kind: IC50

CCN(c1nc(OC[C@@]23CCCN2C[C@H](F)C3)nc2c(F)c(-c3ccc(F)c4sc(N)c(C#N)c34)c(C(F)(F)F)cc12)[C@H]1CCN(C(=O)OCC2CN(C(C)=O)C2)C1 (atropisomer, axis not shown)    < 100 nM

Query: If you can, please state the reported IC50 value of CCN(c1nc(OC[C@@]23CCCN2C[C@H](F)C3)nc2c(F)c(-c3ccc(F)c4sc(N)c(C#N)c34)c(C(F)(F)F)cc12)[C@H]1CCN(C(=O)c2ncc(C)o2)C1 (atropisomer, axis not shown) .
Reply: < 100 nM

* * *

tested_target: Avi-KRAS G12D (1-169) GppNHp/RAF1 RBD-3xFLAG (52-151) (Homo sapiens, UniProt P01116, G12D)
Construct: Avi-KRAS G12D (1-169)
Sequence (P01116 1-169 isoform P01116-2 G12D): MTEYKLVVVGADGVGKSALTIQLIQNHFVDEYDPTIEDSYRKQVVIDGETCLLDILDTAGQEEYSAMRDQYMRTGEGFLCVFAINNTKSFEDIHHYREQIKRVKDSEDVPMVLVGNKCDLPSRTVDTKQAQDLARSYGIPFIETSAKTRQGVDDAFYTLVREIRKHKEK
protocol_description: Raf1-KRAS G12D-GppNHP disruption HTRF assay (Biological Example 1)
Type: binding
reported_conditions: KRAS G12D-GppNHp/RAF1 RBD HTRF
Consider the following compounds and their measured IC50 readings.

Query: If you can, please state the reported IC50 value of CC(=O)N1CCC[C@H](N(C)c2nc(OC[C@@]34CCCN3C[C@H](F)C4)nc3c(F)c(-c4ccc(F)c5sc(N)c(C#N)c45)c(C(F)(F)F)cc23)C1 [Compound 289] .
Reply: 100 to 1000 nM

Query: If you can, please state the reported IC50 value of CN1CC(F)(F)C[C@H]1COc1nc(N2CC3CC(C2)O3)c2cc(C(F)(F)F)c(-c3ccc(F)c4sc(N)c(C#N)c34)c(F)c2n1 [Compound 498] .
Reply: > 10000 nM

Query: If you can, please state the reported IC50 value of CCC(=O)N1CC[C@@H]2[C@H]1CN2c1nc(OC[C@@]23CCCN2C[C@H](F)C3)nc2c(F)c(-c3ccc(F)c4sc(N)c(C#N)c34)c(C(F)(F)F)cc12 [Compound 515] .
Reply: 100 to 1000 nM

Query: If you can, please state the reported IC50 value of C[C@]1(CO)CCN1c1nc(OC[C@@]23CCCN2C[C@H](F)C3)nc2c(F)c(-c3ccc(F)c4sc(N)c(C#N)c34)c(C(F)(F)F)cc12 [Compound 429] .
Reply: 100 to 1000 nM

Query: If you can, please state the reported IC50 value of CC(=O)N1C[C@@H](N(C)c2nc(OC[C@@]34CCCN3C[C@H](F)C4)nc3c(F)c(-c4ccc(F)c5sc(N)c(C#N)c45)c(C(F)(F)F)cc23)C[C@@H]1CF [Compound 454] .
Reply: 100 to 1000 nM

* * *

tested_target: Avi-KRAS WT (2-169) GTP/RAF1 RBD-3xFLAG (51-131) (Homo sapiens, UniProt P01116)
Construct: Avi-KRAS WT (2-169)
Sequence (P01116 2-169 isoform P01116-2): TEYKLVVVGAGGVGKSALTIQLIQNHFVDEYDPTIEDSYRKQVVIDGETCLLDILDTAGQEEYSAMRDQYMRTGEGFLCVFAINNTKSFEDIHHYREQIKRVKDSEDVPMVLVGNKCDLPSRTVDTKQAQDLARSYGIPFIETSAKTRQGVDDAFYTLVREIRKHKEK
protocol_description: Raf1-KRAS WT-GTP disruption HTRF assay (Biological Example 3)
Assay type: binding
reported_conditions: KRAS WT, GTP-loaded
measurement_kind: IC50

Field: example entries. Status: answers known.
CCN(c1nc(OC[C@@]23CCCN2C[C@H](F)C3)nc2c(F)c(-c3ccc(F)c4sc(N)c(C#N)c34)c(C(F)(F)F)cc12)[C@H]1C[C@@H](C)N(C(=O)C2CC2(F)F)C1 (stereo partly drawn) [Compound 877]    1 to 10 µM
CCN(c1nc(OC[C@@]23CCCN2C[C@H](F)C3)nc2c(F)c(-c3ccc(F)c4sc(N)c(C#N)c34)c(C(F)(F)F)cc12)[C@H]1C[C@H](C)N(C(=O)c2cocn2)C1 (atropisomer, axis not shown) [Compound 914]    0.1 to 1 µM

Query: If you can, please state the reported IC50 value of CCN(c1nc(OC[C@@]23CCCN2C[C@H](F)C3)nc2c(F)c(-c3ccc(F)c4sc(N)c(C#N)c34)c(C(F)(F)F)cc12)[C@H]1CCN(C(=O)c2cccs2)C1 (atropisomer, axis not shown) [Compound 920] .
Reply: 0.1 to 1 µM

Query: If you can, please state the reported IC50 value of CCN(c1nc(OC[C@@]23CCCN2C[C@H](F)C3)nc2c(F)c(-c3ccc(F)c4sc(N)c(C#N)c34)c(C(F)(F)F)cc12)[C@H]1CCN(C(=O)O[C@H](C)C(F)(F)F)C1 (atropisomer, axis not shown) [Compound 850] .
Reply: 1 to 10 µM

Query: If you can, please state the reported IC50 value of CCN(c1nc(OC[C@@]23CCCN2C[C@H](F)C3)nc2c(F)c(-c3ccc(F)c4sc(N)c(C#N)c34)c(C(F)(F)F)cc12)[C@@H]1C[C@@H](C)N(C(C)=O)C1 (atropisomer, axis not shown) [Compound 527] .
Reply: 0.1 to 1 µM

Query: If you can, please state the reported IC50 value of CCN(c1nc(OC[C@@]23CCCN2C[C@H](F)C3)nc2c(F)c(-c3ccc(F)c4sc(N)c(C#N)c34)c(C(F)(F)F)cc12)[C@H]1C[C@H]2C[C@@H](C)C(=O)N2C1 (atropisomer, axis not shown) [Compound 866] .
Reply: ≤ 0.1 µM

Query: If you can, please state the reported IC50 value of CN(c1nc(OC[C@@]23CCCN2C[C@H](F)C3)nc2c(F)c(-c3ccc(F)c4sc(N)c(C#N)c34)c(C(F)(F)F)cc12)[C@H]1CC(=O)N2CCC[C@H]12 (atropisomer, axis not shown) [Compound 934] .
Reply: 0.1 to 1 µM

Query: If you can, please state the reported IC50 value of CCN(c1nc(OC[C@@]23CCCN2C[C@H](F)C3)nc2c(F)c(-c3ccc(F)c4sc(N)c(C#N)c34)c(C(F)(F)F)cc12)[C@H]1C[C@@H](C(=O)N(C)C)C1 (atropisomer, axis not shown) [Compound 957] .
Reply: 1 to 10 µM

Query: If you can, please state the reported IC50 value of CCN(c1nc(OC[C@@]23CCCN2C[C@H](F)C3)nc2c(F)c(-c3ccc(F)c4sc(N)c(C#N)c34)c(C(F)(F)F)cc12)[C@@H]1CCN(C(=O)[C@@H]2CCO2)[C@@H]1C (atropisomer, axis not shown) [Compound 931] .
Reply: 0.1 to 1 µM

Query: If you can, please state the reported IC50 value of CCN(c1nc(OCC23CCCN2CC(F)C3)nc2c(F)c(-c3ccc(F)c4sc(N)c(C#N)c34)c(C(F)(F)F)cc12)C1CCN(C(=O)c2ncns2)C1 (stereo not drawn) [Compound 949] .
Reply: 0.1 to 1 µM

Query: If you can, please state the reported IC50 value of CCN(c1nc(OC[C@@]23CCCN2C[C@H](F)C3)nc2c(F)c(-c3ccc(F)c4sc(N)c(C#N)c34)c(C(F)(F)F)cc12)[C@H]1CCN(C(=O)C(C)C)C1 [Compound 332] .
Reply: 0.1 to 1 µM

Query: If you can, please state the reported IC50 value of CCN(c1nc(OC[C@@]23CCCN2C[C@H](F)C3)nc2c(F)c(-c3ccc(F)c4sc(N)c(C#N)c34)c(C(F)(F)F)cc12)[C@H]1C[C@H](C)N(C(=O)COC)C1 (atropisomer, axis not shown) [Compound 538] .
Reply: 0.1 to 1 µM

Query: If you can, please state the reported IC50 value of Cc1c(C(=O)N2CCCC2)nn2c1CN(c1nc(OCC34CCCN3CC(F)C4)nc3c(F)c(-c4ccc(F)c5sc(N)c(C#N)c45)c(C(F)(F)F)cc13)CC2 (stereo not drawn) [Compound 744] .
Reply: 0.1 to 1 µM

Query: If you can, please state the reported IC50 value of CCN(c1nc(OC[C@@]23CCCN2C[C@H](F)C3)nc2c(F)c(-c3ccc(F)c4sc(N)c(C#N)c34)c(C(F)(F)F)cc12)[C@H]1C[C@H]2COC(=O)N2C1 (atropisomer, axis not shown; (aS)) [Compound 518] .
Reply: ≤ 0.1 µM

Query: If you can, please state the reported IC50 value of CN(Cc1cocn1)c1nc(OC[C@@]23CCCN2C[C@H](F)C3)nc2c(F)c(-c3ccc(F)c4sc(N)c(C#N)c34)c(C(F)(F)F)cc12 (atropisomer, axis not shown) [Compound 855] .
Reply: 0.1 to 1 µM

Query: If you can, please state the reported IC50 value of CCN(c1nc(OC[C@@]23CCCN2C[C@H](F)C3)nc2c(F)c(-c3ccc(F)c4sc(N)c(C#N)c34)c(C(F)(F)F)cc12)[C@H]1CCN(C(=O)N2CC(F)(F)C2)C1 (atropisomer, axis not shown) [Compound 831] .
Reply: 0.1 to 1 µM

Query: If you can, please state the reported IC50 value of CCN(c1nc(OC[C@@]23CCCN2C[C@H](F)C3)nc2c(F)c(-c3ccc(F)c4sc(N)c(C#N)c34)c(C(F)(F)F)cc12)[C@H]1C[C@@H]2CCN(C)C(=O)N2C1 (atropisomer, axis not shown) [Compound 667] .
Reply: 0.1 to 1 µM

Query: If you can, please state the reported IC50 value of CCN(c1nc(OC[C@@]23CCCN2C[C@H](F)C3)nc2c(F)c(-c3ccc(F)c4sc(N)c(C#N)c34)c(C(F)(F)F)cc12)[C@H]1CCN(C(=O)c2nccs2)C1 (atropisomer, axis not shown) [Compound 927] .
Reply: 0.1 to 1 µM
